- test.system: adrenaline α1 receptors
- test.method.notes: Receptor binding test: inhibition of tritium-labeled prazosin binding to brain homogenate
- Set-up: species or system Male Wistar rats
- condition.set: applicant's own research; read-out: affinity to an α1-receptor (IC50)
measurement.label: pIC50
The scale used: pIC50 is minus the common logarithm of the concentration in molar units.

Lab note: O[C@@H]1Cc2cccc(I)c2C[C@H]1N1CCC(c2ccccc2)CC1 gave pIC50 of 8.17

###

- test.system: vesamicol receptors (Rattus norvegicus)
- Sequence (Q62666 1-530): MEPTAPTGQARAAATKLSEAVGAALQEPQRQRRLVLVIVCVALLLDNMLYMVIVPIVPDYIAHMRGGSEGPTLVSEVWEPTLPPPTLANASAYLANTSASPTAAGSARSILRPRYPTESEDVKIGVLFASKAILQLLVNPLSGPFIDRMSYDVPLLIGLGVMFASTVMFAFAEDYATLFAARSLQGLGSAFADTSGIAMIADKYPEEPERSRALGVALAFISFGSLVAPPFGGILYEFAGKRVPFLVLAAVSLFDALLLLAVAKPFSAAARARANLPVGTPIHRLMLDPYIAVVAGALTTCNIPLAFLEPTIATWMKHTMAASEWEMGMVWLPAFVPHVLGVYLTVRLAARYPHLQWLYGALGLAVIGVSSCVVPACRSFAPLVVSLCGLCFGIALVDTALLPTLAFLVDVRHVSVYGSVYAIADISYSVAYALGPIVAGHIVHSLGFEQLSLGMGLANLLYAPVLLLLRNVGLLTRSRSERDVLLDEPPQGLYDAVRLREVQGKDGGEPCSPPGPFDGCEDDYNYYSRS
- test.method.notes: Saturation experiment of I-125 labeled DRC140 on brain cell fractions (Scatchard plots)
- Assay type: binding
- Set-up: Synaptic vesicles were extracted and separated from the brain of a rat; from tissue; host or cells: rat brain without cerebellum: P2, crude synaptic vesicles, purified synaptic vesicles
- condition.set: Kd, Crude synaptic vesicles; average value ± standard deviation
measurement.label: Kd (nM)
Your answer should be a plain number; it is taken to be in nM.

Value of Kd reported for the compound OC1Cc2cccc([125I])c2CC1N1CCN(c2ccccc2)CC1 (stereo not shown) [I-125 labeled DRC140] is 0.34
